- Experiment: Fluorescence assay of the photoactivated reaction between diaryltetrazole and acrylic acid
- Cond: 100 μM compound, 10 mM acrylic acid; photoirradiation 1 minute at 302 nm
Recorded Fold increase in fluorescence 10 mM by entry
Readout type: Fold increase in fluorescence 10 mM

Mol: COC(=O)c1ccc(-c2nnn(-c3ccccc3)n2)cc1
Assay result: 3.23
--
Mol: COc1ccc(-n2nnc(-c3ccccc3)n2)cc1
Assay result: 3.38
--
Mol: O=C(O)c1ccc(-c2nnn(-c3ccccc3)n2)cc1
Assay result: 5.15
--
Mol: COC(=O)c1ccc(-c2nnn(-c3ccc(F)cc3)n2)cc1
Assay result: 3.38
--
Mol: COC(=O)c1ccc(-c2nnn(-c3ccc(F)cc3F)n2)cc1
Assay result: 3.17
--
Mol: COc1ccc(-n2nnc(-c3ccc(C)cc3)n2)cc1
Assay result: 3.87

###

- Experiment: Fluorescence assay of the photoactivated reaction between diaryltetrazole and acrylic acid
- Cond: 100 μM compound reacted with acrylic acid; photoirradiation 1 minute at 302 nm

Compound: COC(=O)c1ccc(-c2nnn(-c3ccc(F)cc3)n2)cc1 [Compound 2]
λex,max [nm]: 392
//
Compound: COC(=O)c1ccc(-c2nnn(-c3ccc(F)cc3F)n2)cc1 [Compound 3]
λex,max [nm]: 380
//
Compound: COC(=O)c1ccc(-c2nnn(-c3ccccc3)n2)cc1 [Compound 1]
λex,max [nm]: 395
//
Compound: O=C(O)c1ccc(-c2nnn(-c3ccccc3)n2)cc1 [Compound 4]
λex,max [nm]: 380
//
Compound: COc1ccc(-n2nnc(-c3ccc(C)cc3)n2)cc1 [Compound 6]
λex,max [nm]: 371
//
Compound: COc1ccc(-n2nnc(-c3ccccc3)n2)cc1 [Compound 7]
λex,max [nm]: 368

###

- Experiment: Fluorescence assay of the photoactivated reaction between diaryltetrazole and acrylic acid
- Cond: 100 μM compound reacted with acrylic acid; photoirradiation 1 minute at 302 nm
Recorded λem,max by entry

Mol: COC(=O)c1ccc(-c2nnn(-c3ccccc3)n2)cc1
λem,max [nm]: 482
--
Mol: O=C(O)c1ccc(-c2nnn(-c3ccccc3)n2)cc1
λem,max [nm]: 520
--
Mol: COC(=O)c1ccc(-c2nnn(-c3ccc(F)cc3)n2)cc1
λem,max [nm]: 487
--
Mol: COC(=O)c1ccc(-c2nnn(-c3ccc(F)cc3F)n2)cc1
λem,max [nm]: 482
